Assay: cytotoxicity toward Jurkat T cells, primary screen, cytotoxicity control, cell-based, Jurkat E6.1, 60K MLSMR library (AID 463)
Conditions: Jurkat E6.1 viability, ATP luminescence, 48 h; at 4 µM; stronger effect = higher value
About 710 (1.3%) of roughly 56,000 compounds were called active. Many of the other results were omitted from the sample, so actives are more common in it than they were.
experimental endpoint: inhibition (%)
One number for each entry, in %.

The following compounds have reported results that may help.
INSERT INTO assay_data (compound, experimental_endpoint, readout_number) VALUES
  ('CCCCNC(=O)CSc1nccn1Cc1ccccc1', 'inhibition', -7.9),
  ('COc1ccc(Cn2nnc3c(=O)[nH]c(C4CCN(C(=O)c5ccccc5Cl)CC4)nc32)cc1', 'inhibition', -2.8),
  ('CCOc1ccc(-c2nnc3ccc(SC)nn23)cc1', 'inhibition', 0.4),
  ('O=C(CS(=O)(=O)c1cn(Cc2ccc(Cl)cc2)c2ccccc12)N1CCOCC1', 'inhibition', 5.9),
  ('Cc1ccc(-c2noc(CSc3nnnn3-c3ccccc3)n2)cc1', 'inhibition', -2.2);

Fill in inhibition for each of the 7 compounds listed.
1. O=C(O)CCSc1nnc(-c2ccccc2)n1-c1ccccc1
2. CC(=O)Oc1ccc(C)cc1N1C(=O)c2ccc(C(=O)O)cc2C1=O
3. O=C(Nc1ccc2c(c1)nc1n2CCCCC1)c1cc(S(=O)(=O)N2CCOCC2)ccc1Cl
4. CCN(c1ccccc1)S(=O)(=O)c1ccc(N)cc1
5. COCCn1c(SCC(=O)Nc2cc(Cl)ccc2OC)nc2c(c1=O)SC(C)C2 (configuration not stated)
6. CCCc1[nH]nc2c1C(c1ccc(OC(=O)c3ccco3)cc1)C(C#N)=C(N)O2 (configuration not stated)
7. O=C1N(Cc2ccc3c(c2)OCO3)c2ccccc2C1(O)c1c[nH]c2ccccc12 (configuration not stated)

// result
1: -2.8; 2: -10.1; 3: 34.5; 4: -3.3; 5: 6.8; 6: 0.7; 7: -8.9

Fill in inhibition for each of the 3 compounds listed.
1. Cc1ccc(S(=O)(=O)C2(S(=O)(=O)c3ccc(C)cc3)CCCC2)cc1
2. COC(=O)CSC1=C(C#N)C(c2ccccc2OC)C(C(=O)OC)C(=O)N1 (configuration not stated)
3. CC(C)OCCCNc1ncnc2c1[nH]c1ccc(F)cc12

// result
[84, 5.3, 87.6]

Fill in inhibition for each of the 7 compounds listed.
1. COc1ccc(Nc2oc(-c3ccccc3Cl)nc2C#N)cc1
2. NC(=O)c1ccsc1NC(=O)c1ccco1
3. O=C(Nc1ccc2c(c1)OCCO2)c1ccncc1
4. COc1ccc(C(c2nnnn2C2CCCCC2)N2CCN(c3ccccc3F)CC2)cc1 (configuration not stated)
5. CCOC(=O)CSC1=C(C#N)C(c2sccc2C)CC(=O)N1 (configuration not stated)
6. COc1ccc(OCC(=O)N2CCOCC2)cc1
7. COC(=O)C1C(=O)c2c([nH]c(C(=O)OCCSC)c2C)CC1C (configuration not stated)

// result
1: 85.4; 2: -2.4; 3: 3.8; 4: -5.7; 5: 93.2; 6: -4.3; 7: -3.9

----------
Assay: cytotoxicity toward Jurkat T cells, primary screen, cytotoxicity control, cell-based, Jurkat E6.1, 60K MLSMR library (AID 463)
Settings: Jurkat E6.1 viability, ATP luminescence, 48 h; at 4 µM; stronger effect = higher value
Among all 56,000 compounds or so, about 710 (1.3%) were called active. What follows is part of a selection rich in actives, with near analogues and random picks from the rest.
experimental endpoint: inhibition (%)
Answers are plain numbers, in %.

INSERT INTO assay_data (molecule, readout_number) VALUES
  ('CC(C)(O)C#Cc1ccc(C(=O)N2CCC(C(N)=O)(N3CCCCC3)CC2)cc1', -6.2),
  ('O=C(COc1ccccc1Cl)Nn1cnnc1', 4.2),
  ('CC(C)C1N=C2c3ccccc3N=C(SCC(=O)c3ccc(O)c(O)c3)N2C1=O (stereo not given)', 50.8),
  ('O=C(c1cccc(C(=O)N2CCN(c3ccc(F)cc3)CC2)c1)N1CCN(c2ccc(F)cc2)CC1', 37.4);

Now consider a different molecule.
// query What does the record list as inhibition for COc1ccc(C)c(Cn2c(-c3nonc3N)nc3ccccc32)c1 ?
// result 75.3
